- study.system: Gingipain K
- experimental.protocol: cell-based or functional assay
Square brackets hold non-standard residues; d marks the D form. * marks the point of attachment. Hydrocinnamoyl = O=C(CCc1ccccc1)*; CH:CH‑COOEt = CCOC(=O)/C=C/*; AOrn = not defined here
So I've got a bunch of binders here, and I need their k2 values.
Answers are plain numbers, in M⁻¹ s⁻¹.

LK (modifications not checked) [PhPr-Leu-ALys-CH═CH-CON(Bzl)-p-CH2C6H4F]: 801000

Below is a list of binders. For each, state its recorded k2.
1. LK (modifications not checked) [PhPr-Leu-ALys-CH═CH-CON(4H-quinoline)]
2. LK (modifications not checked) [PhPr-Leu-ALys-CH═CH-CON(Me)CH2Ph]
3. LR (modifications not checked) [PhPr-Leu-AArg-CH═CH-COOEt]
4. LK (modifications not checked) [PhPr-Leu-ALys-CH═CH-CON(Bzl)CH2-2-naphthyl]
5. Hydrocinnamoyl-Ala-[AOrn]-{CH:CH‑COOEt} (reading uncertain) [PhPr-Ala-AOrn-CH═CH-COOEt]

-- reply
[252000, "1.36e+06", 1580, 811000, 632000]

Below is a list of binders. For each, state its recorded k2.
1. Hydrocinnamoyl-Leu-[AOrn]-{CH:CH‑CON(CH2Ph)2} (reading uncertain) [PhPr-Leu-AOrn-CH═CH-CON(CH2Ph)2]
2. Hydrocinnamoyl-Leu-[AOrn]-{CH:CH‑CONHCH2Ph} (reading uncertain) [PhPr-Leu-AOrn-CH═CH-CONHCH2Ph]

-- reply
61600
24700
